Kindly supply the reported melting point values for the records listed here.

Enquiry: # lookup: melting point of "Fc1ncnc(Oc2ccccc2)c1F"
Return: 65 to 66 °C

Enquiry: # lookup: melting point of Cc1cccc(NC(=O)NC2CN(C(=O)C(C)(C)C)c3ccc(C)cc3N(CC(=O)c3ccccc3C)C2=O)c1 (centres undefined)
Return: 218 to 220 °C

Enquiry: # lookup: melting point of "COC(=O)CCCCCCC1=C(OC)C(=O)CC1=O"
Return: 103 °C

Enquiry: # lookup: melting point of "CCOC(=O)c1c(=O)c2c(F)c(F)c(F)c(F)c2n2ccccc12"
Return: 198 to 200 °C

====

VALUE KIND: melting point

Enquiry: # lookup: melting point of "CCOC(=O)CCCCCn1c(-c2ccccc2)c(-c2ccccc2)n(-c2ccccc2)c1=O"
Return: 104 to 106 °C

Enquiry: # lookup: melting point of "Nc1ccccc1Cc1nc[nH]n1"
Return: 134 to 136 °C

Enquiry: # lookup: melting point of "C[C@@H](n1cnc2cc(-c3ccc(C=NNO)cc3)sc2c1=O)[C@](O)(Cn1cncn1)c1ccc(F)cc1F"
Return: 246 to 247 °C

Enquiry: # lookup: melting point of "CCCc1cc(Cn2c(=O)ccc3c(CC)nc(CC)cc32)ccc1Oc1ccccc1CC(=O)OC"
Return: 91 to 92 °C

Enquiry: # lookup: melting point of "O=C(O)CN1C(=O)C(=Cc2c[nH]c3ccccc23)SC1=S"
Return: > 300 °C

Enquiry: # lookup: melting point of "CCOC(=O)Cc1ccc(OCCCN2CCC(C(O)(c3ccc(F)cc3)c3ccc(F)cc3)CC2)c(OC)c1"
Return: 110 to 112 °C

Enquiry: # lookup: melting point of "CC(C)n1c(/C=C/COc2ccc(C(=O)C(=O)O)cc2)c(-c2ccc(F)cc2)c2ccccc21"
Return: 151 to 152 °C

Enquiry: # lookup: melting point of "O=C(c1cccc(C(F)(F)F)c1)N(CCCCc1cccnc1)C1=Nc2cccc3cccc1c23"
Return: 122 to 123 °C

Enquiry: # lookup: melting point of CC(=O)C(O)C1OC(n2cnc3c(NC4CCCc5ccccc54)ncnc32)C(O)C1O (stereo not given)
Return: 87 to 97 °C

Enquiry: # lookup: melting point of "N#Cc1cc(F)c(N)c(F)c1"
Return: 110 to 111 °C

Enquiry: # lookup: melting point of "CCOC(=O)CCc1c(OCc2ccc(OCc3nc(-c4ccccc4)oc3C)cc2)ccc2ccccc12"
Return: 86 to 87 °C

Enquiry: # lookup: melting point of "Cc1c(Cl)cc(C(C)(C)C)c(O)c1-c1nc2cc(C#N)ccc2[nH]1"
Return: 258 °C

Enquiry: # lookup: melting point of "COC(=O)[C@@H](NC(=O)c1ccc(F)c(Br)c1)[C@@H](C)O"
Return: 73 to 74 °C

Enquiry: # lookup: melting point of "CCCCCCCNC(=O)n1nc(Oc2ncc(C(F)(F)F)cc2Cl)c(Cl)c1C"
Return: 67 to 68 °C

Enquiry: # lookup: melting point of COc1ccc(-c2cncc(OC3SCC(OC(C)=O)C(OC(C)=O)C3OC(C)=O)c2)c(Cl)c1 (stereo not given)
Return: 126 °C

====

Kindly supply the reported melting point values for the records listed here.

Enquiry: # lookup: melting point of "O=C(NS(=O)(=O)c1ccc(Oc2cccc(C(F)(F)F)c2)cc1)c1ccc(C(=O)NCCO)nc1"
Return: 167 to 168 °C

Enquiry: # lookup: melting point of "CC(=O)Nc1cccc2c1C(=O)c1c-2n[nH]c1-c1ccc(N(C)C)cc1"
Return: > 300 °C

Enquiry: # lookup: melting point of "O=C(Nc1ccc(C(F)(F)F)cc1)Nc1ccc2ncccc2c1"
Return: 259 to 263 °C

Enquiry: # lookup: melting point of "COc1ccc(S(=O)(=O)Nc2ccc(C)cc2)c2c3ccccc3n(C=O)c12"
Return: 193 to 199 °C

Enquiry: # lookup: melting point of "Cn1c(=O)[nH]c2cc(CN3CCN(C(c4ccccc4)c4ccccc4)CC3)ccc21"
Return: 246 °C

Enquiry: # lookup: melting point of "C=CCc1c(OCC(=O)O)ccc2c(CCc3nc(-c4ccc(Cl)cc4Cl)oc3C(C)C)noc12"
Return: 80 to 85 °C

Enquiry: # lookup: melting point of "CO/C=C1/C(=O)NC(=O)c2cc(Br)ccc21"
Return: 242 to 243 °C

Enquiry: # lookup: melting point of "O=C1CNc2cc(Br)c(F)cc2N1"
Return: 214 to 216 °C

Enquiry: # lookup: melting point of "CN(c1cccc2c(Cl)c(-c3nccs3)[nH]c12)S(=O)(=O)c1cccs1"
Return: 222 to 223 °C

Enquiry: # lookup: melting point of "COc1ccc(N(CCC(=O)NCC(=O)O)C(=O)c2ccc(Cl)cc2)cc1"
Return: 185 to 187 °C

Enquiry: # lookup: melting point of "Cn1cnnc1COc1nn2c(-c3ccccc3F)nnc2cc1C1CCC1"
Return: 228 °C

Enquiry: # lookup: melting point of "CCCCc1ccc2c(c1)Cc1ccccc1-2"
Return: 65 to 66.5 °C

Enquiry: # lookup: melting point of "CCCC(=O)c1cnc2c(C)cccc2c1Nc1ccccc1OC"
Return: 135 to 137 °C

Enquiry: # lookup: melting point of "CCCCCCCCCCc1ccc(CNc2ccc(C(=O)OCC)cc2)cc1"
Return: 87 to 90 °C

Enquiry: # lookup: melting point of "c1cc(Cc2nnn[nH]2)cc(OCc2ncc3ccccc3n2)c1"
Return: 129 to 131 °C
